Reported values of pIC50 for individual entries
- System: H460 lung tumor cell line
- Method Summary: Methylene Blue Growth Inhibition Assay, H460
- Format: cell-based, human
- Test Context: Homo sapiens, NCI-H460, 72 h; H460, 3 days; read-out: MeB Cell Line IC50
pIC50: −log10 of the molar value.

Consider the reported pIC50 for these molecules:
>  <Smiles Repr>
COc1cc2ncn(-c3nc(OCc4ccccc4C(F)(F)F)c(C(N)=O)s3)c2cc1OC

>  <Target Or System>
H460 lung tumor cell line

>  <pIC50>
5.00 to 6.00

$$$$
>  <Smiles Repr>
Cc1cc2ncn(-c3nc(OCc4ccccc4C(F)(F)F)c(C(N)=O)s3)c2cc1C

>  <Target Or System>
H460 lung tumor cell line

>  <pIC50>
< 5.00

$$$$
>  <Smiles Repr>
NC(=O)c1sc(-n2cnc3ccc(F)cc32)nc1OCc1ccccc1C(F)(F)F

>  <Target Or System>
H460 lung tumor cell line

>  <pIC50>
< 5.00

$$$$
>  <Smiles Repr>
NC(=O)c1sc(-n2cnc3cc(Cl)ccc32)nc1OCc1ccccc1C(F)(F)F

>  <Target Or System>
H460 lung tumor cell line

>  <pIC50>
< 5.00

$$$$
>  <Smiles Repr>
NC(=O)c1sc(-n2cnc3ccccc32)nc1OCc1ccccc1C(F)(F)F

>  <Target Or System>
H460 lung tumor cell line

>  <pIC50>
< 5.00

$$$$

Look up pIC50 for this molecule: `NC(=O)c1sc(-n2cnc3ccc(Cl)cc32)nc1OCc1ccccc1C(F)(F)F`
< 5.00
